Insulin receptor affinity [IC50 relative to HI (%)] values, listed per item
experimental-system: insulin receptor A (UniProt P06213-2 28-1370, limits assumed)
Sequence (P06213 other isoform, or with tags, fused parts or gaps limits assumed): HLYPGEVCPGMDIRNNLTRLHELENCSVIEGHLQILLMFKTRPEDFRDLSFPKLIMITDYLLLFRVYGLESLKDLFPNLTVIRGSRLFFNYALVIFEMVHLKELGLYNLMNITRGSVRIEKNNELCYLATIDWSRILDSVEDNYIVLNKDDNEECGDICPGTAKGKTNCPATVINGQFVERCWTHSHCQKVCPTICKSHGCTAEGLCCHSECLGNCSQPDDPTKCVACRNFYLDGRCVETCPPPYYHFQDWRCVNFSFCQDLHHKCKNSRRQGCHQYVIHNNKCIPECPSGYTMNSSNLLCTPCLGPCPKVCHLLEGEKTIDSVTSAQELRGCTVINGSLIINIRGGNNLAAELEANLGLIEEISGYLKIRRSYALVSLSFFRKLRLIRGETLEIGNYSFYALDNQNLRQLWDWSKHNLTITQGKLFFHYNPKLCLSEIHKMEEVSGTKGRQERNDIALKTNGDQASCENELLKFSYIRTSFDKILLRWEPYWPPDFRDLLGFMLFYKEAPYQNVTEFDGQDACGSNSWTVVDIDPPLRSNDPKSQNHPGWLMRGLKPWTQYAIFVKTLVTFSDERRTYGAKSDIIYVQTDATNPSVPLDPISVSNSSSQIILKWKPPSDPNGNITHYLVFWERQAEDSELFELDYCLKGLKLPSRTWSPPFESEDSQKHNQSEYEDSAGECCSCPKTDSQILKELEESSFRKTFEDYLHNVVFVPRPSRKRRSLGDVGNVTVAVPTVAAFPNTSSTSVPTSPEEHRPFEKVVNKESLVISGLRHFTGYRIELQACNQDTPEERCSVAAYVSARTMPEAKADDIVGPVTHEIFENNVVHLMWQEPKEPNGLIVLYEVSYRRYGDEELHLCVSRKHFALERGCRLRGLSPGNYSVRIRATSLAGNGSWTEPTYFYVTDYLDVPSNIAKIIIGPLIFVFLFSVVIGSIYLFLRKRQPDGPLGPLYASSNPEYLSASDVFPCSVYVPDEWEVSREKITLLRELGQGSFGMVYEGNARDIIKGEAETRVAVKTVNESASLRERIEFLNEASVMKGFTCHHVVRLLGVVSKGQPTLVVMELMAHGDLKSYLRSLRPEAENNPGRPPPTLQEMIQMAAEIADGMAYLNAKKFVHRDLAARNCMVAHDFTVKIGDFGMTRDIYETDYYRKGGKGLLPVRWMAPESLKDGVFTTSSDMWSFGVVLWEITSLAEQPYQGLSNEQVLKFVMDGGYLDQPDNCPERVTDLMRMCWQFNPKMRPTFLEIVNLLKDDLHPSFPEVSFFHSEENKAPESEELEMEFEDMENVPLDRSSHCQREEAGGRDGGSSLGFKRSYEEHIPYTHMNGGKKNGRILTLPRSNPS
protocol: insulin receptor binding assay as in Vienberg et al. 2011; relative to human insulin on insulin receptor A (100%)

Entry under review: A14E, A21G, A22(GQEP)12, A70K^, A71P, B25H, B29R, desB30 human insulin/(227A, 234A, 235K, 297E, 315Q, 384Q, des447 hIgG4-Fc(228-447)) … (other, Cys229 (EU numbering) sulphur bound to an acetyl arm of the linker; A70K N(eps) acylated by the trivalent linker 4-[bis[2-[(2-acetyl)amino]ethyl]amino]-4-oxo-butanoyl, also called Ex 5.17) chain 1: GIVEQCCTSICSLEQLENYCGGQEPGQEPGQEPGQEPGQEPGQEPGQEPGQEPGQEPGQEPGQEPGQEPKP chain 2: FVNQHLCGSHLVEALYLVCGERGFHYTPR chain 3: ASCPAPEAKGGPSVFLFPPKPKDTLMISRTPEVTCVVVDVSQEDPEVQFNWYVDGVEVHNAKTKPREEQFESTYRVVSVLTVLHQDWLQGKEYKCKVSNKGLPSSIEKTISKAKGQPREPQVYTLPPSQEEMTKNQVSLTCLVKGFYPSDIAVEWESQGQPENNYKTTPPVLDSDGSFFLYSRLTVDKSRWQEGNVFSCSVMHEALHNHYTQKSLSLSLG . Reported Insulin receptor affinity [IC50 relative to HI (%)]?
3.98%

Entry under review: A14E, A21G, A22(GQEP)19, A98K^, A99P, B3Q, B25H, B29R, desB30 human insulin/(227A, 234A, 235K, 297E, 315Q, 384Q, des447 hIgG4-Fc(228-447)) … (other, Cys229 (EU numbering) sulphur bound to an acetyl arm of the linker; A98K N(eps) acylated by the trivalent linker 4-[bis[2-[(2-acetyl)amino]ethyl]amino]-4-oxo-butanoyl, also called Ex 5.2) chain 1: GIVEQCCTSICSLEQLENYCGGQEPGQEPGQEPGQEPGQEPGQEPGQEPGQEPGQEPGQEPGQEPGQEPGQEPGQEPGQEPGQEPGQEPGQEPGQEPKP chain 2: FVQQHLCGSHLVEALYLVCGERGFHYTPR chain 3: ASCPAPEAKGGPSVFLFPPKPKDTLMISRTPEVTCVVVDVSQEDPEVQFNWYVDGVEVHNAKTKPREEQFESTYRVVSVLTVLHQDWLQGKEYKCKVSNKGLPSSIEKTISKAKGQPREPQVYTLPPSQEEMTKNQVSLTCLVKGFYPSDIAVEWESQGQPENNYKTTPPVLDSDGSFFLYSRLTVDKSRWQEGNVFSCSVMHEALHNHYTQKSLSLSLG . Reported Insulin receptor affinity [IC50 relative to HI (%)]?
6.1%

Entry under review: A14E, A21G, A22(GQAPGQAPGQEP)6-GQAP, A98K^, A99P, B3Q, B25H, B29R, desB30 human insulin/(227A, 234A, 235K, 297E, 315Q, 384Q, des447 hIgG4-Fc(228-447)) … (other, Cys229 (EU numbering) sulphur bound to an acetyl arm of the linker; A98K N(eps) acylated by the trivalent linker 4-[bis[2-[(2-acetyl)amino]ethyl]carbamoylamino]butanoyl, also called Ex 5.24) chain 1: GIVEQCCTSICSLEQLENYCGGQAPGQAPGQEPGQAPGQAPGQEPGQAPGQAPGQEPGQAPGQAPGQEPGQAPGQAPGQEPGQAPGQAPGQEPGQAPKP chain 2: FVQQHLCGSHLVEALYLVCGERGFHYTPR chain 3: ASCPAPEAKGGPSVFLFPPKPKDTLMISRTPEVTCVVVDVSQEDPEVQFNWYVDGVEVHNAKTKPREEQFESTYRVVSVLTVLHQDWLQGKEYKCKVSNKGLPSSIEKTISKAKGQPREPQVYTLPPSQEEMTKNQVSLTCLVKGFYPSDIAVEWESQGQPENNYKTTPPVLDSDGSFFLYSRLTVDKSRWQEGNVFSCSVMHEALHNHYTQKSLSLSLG . Reported Insulin receptor affinity [IC50 relative to HI (%)]?
4.6%

Entry under review: (A14E, A21G, A22(GQAP)24, A118G, A119Q, A120A, A121K^, A122P, B25H, B29R, desB30 human insulin)/(227A, 234A, 235K, 297E, 315Q, 384Q, des447 hIgG4-Fc(228-447)) … (other, Cys229 (EU numbering) sulphur bound to an acetyl arm of the linker; A121K N(eps) acylated by the trivalent linker 4-[bis[2-[(2-acetyl)amino]ethyl]amino]-4-oxo-butanoyl, also called Ex 5.23) chain 1: GIVEQCCTSICSLEQLENYCGGQAPGQAPGQAPGQAPGQAPGQAPGQAPGQAPGQAPGQAPGQAPGQAPGQAPGQAPGQAPGQAPGQAPGQAPGQAPGQAPGQAPGQAPGQAPGQAPGQAKP chain 2: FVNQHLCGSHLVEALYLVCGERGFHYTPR chain 3: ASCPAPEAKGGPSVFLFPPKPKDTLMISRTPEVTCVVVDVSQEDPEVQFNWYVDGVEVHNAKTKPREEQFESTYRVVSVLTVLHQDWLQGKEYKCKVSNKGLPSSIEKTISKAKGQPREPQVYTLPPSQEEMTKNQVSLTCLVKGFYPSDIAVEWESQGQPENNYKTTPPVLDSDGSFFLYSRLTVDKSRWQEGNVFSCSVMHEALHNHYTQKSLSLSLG . Reported Insulin receptor affinity [IC50 relative to HI (%)]?
4.7%

All figures here come from patent US20200261595A1.
